protocol.details: self-splicing fitness, log relative to wild type (ln ratio); higher = more splicing; Tetrahymena group I intron in knt gene, E. coli kanamycin selection, DiMSum; sequences stand for … in CUCUCU…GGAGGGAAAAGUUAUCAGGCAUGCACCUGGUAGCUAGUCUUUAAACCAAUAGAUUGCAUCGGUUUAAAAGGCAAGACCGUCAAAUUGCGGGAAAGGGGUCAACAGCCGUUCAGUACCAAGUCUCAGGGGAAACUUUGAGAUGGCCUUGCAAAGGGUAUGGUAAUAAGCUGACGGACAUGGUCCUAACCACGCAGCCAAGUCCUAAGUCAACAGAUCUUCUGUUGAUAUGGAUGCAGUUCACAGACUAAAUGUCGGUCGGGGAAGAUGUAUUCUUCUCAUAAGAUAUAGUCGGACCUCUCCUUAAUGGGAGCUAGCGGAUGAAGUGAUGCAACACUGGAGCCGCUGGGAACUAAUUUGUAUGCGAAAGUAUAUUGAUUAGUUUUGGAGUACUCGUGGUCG;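 further: selection with 25 µg/mL kanamycin versus none on LB agar overnight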
measurement.context: 30 °C
For each record, write down the corresponding self-splicing fitness (ln).
Give bare numbers.

chain.sequence | self-splicing fitness (ln)
AGACAGCAAUAUUACGUUGA | -3.58
CCUCAGCAAUAUUACGAAUA | -1.54

List reported self-splicing fitness (ln) for each of these sequences:
1. CGUAAGCAAUAUUACGGUUU
2. GUACAGCAAUAUUACGUGGA
3. AGUGAGCAAUAUUACGUUAC
4. GUGAAGCAAUAUUACGUUCC
5. AGUAAGCAAUAUUACGGCUU
6. GACAAGCAAUAUUACGGUGA

Return:
1: -3.8; 2: -4.34; 3: -3.72; 4: -1.67; 5: -0.592; 6: -1.3

List reported self-splicing fitness (ln) for each of these sequences:
1. ACCAAGCAAUAUUACGACUU
2. GUCAAGCAAUAUUACGCUAU
3. GUCUAGCAAUAUUACGCGGU
4. AGAGAGCAAUAUUACGCAAU
5. UGAAAGCAAUAUUACGAUCC
6. UGUGAGCAAUAUUACGGCCA
7. AUGAAGCAAUAUUACGUUAU

Return:
1: -3.83; 2: -4.05; 3: -1.78; 4: -3.58; 5: -0.303; 6: -0.0854; 7: -0.343

Enquiry: I'd like to know its self-splicing fitness (ln). The sequence in question is "GUGCAGCAAUAUUACGCAGU"
Return: -3.58

From: the supplement of paper PMC7877785
